Target: T1, Human TNFR2-His (Sino 10417-H08H) (human, UniProt P20333 23-257)
T1 construct: Bought protein; also called recombinant human TNFR2 protein; not shown: His tag
T1 sequence (looked up): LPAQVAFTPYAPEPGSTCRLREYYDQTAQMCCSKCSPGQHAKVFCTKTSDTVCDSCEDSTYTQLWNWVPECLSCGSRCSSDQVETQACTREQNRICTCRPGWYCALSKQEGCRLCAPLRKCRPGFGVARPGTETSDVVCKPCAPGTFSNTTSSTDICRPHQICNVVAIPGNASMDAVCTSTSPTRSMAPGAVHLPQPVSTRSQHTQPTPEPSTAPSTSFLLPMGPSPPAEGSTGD
Experiment: SPR (Biacore T200), antibody captured on Protein A chip
Assay metric: kon (M⁻¹ s⁻¹)

[
  {
    "Binder": "001-WT (antibody, V domains shown, Human-murine chimeric wild-type molecule; also called human-murine chimeric antibody WT of #001) VH: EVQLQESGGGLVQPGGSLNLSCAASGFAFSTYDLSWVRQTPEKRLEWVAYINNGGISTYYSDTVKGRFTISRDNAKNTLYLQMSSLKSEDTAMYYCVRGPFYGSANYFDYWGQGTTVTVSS VL: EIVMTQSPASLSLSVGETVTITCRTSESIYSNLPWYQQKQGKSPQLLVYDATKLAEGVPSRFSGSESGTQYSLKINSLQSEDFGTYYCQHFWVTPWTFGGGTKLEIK",
    "Assay metric": "kon",
    "Value": 512000
  }
]

Just for reference, patent US20240109974A1 is where these values come from.
